- study system: human IRAK4 FL (Full Length) (Homo sapiens (Human))
- Sequence (Q9NWZ3 whole entry): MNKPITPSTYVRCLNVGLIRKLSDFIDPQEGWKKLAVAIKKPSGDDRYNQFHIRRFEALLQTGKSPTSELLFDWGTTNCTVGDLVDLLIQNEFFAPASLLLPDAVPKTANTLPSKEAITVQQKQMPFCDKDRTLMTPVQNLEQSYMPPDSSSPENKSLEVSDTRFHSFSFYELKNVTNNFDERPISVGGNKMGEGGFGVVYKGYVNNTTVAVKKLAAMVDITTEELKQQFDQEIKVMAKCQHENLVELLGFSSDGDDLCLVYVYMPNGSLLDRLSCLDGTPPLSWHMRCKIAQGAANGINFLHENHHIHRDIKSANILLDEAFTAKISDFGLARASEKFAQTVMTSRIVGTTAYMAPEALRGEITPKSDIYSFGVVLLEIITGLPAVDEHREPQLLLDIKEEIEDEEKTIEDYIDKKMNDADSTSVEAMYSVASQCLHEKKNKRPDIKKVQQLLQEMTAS
- test details: IRAK4 Enzymatic DELFIA Assay, Protocol A
- Type: biochemical
- test parameters: human IRAK4 FL, 0.6 mM ATP (KM); read-out: IRAK4 DELFIA Protocol A IC50
pIC50: −log10 of the molar value.
Kind request: treat 8 as inclusive, so pIC50 at 8 or higher is Satisfied, anything lower is Not satisfied.

COc1cc2c(OC[C@H]3NC(=O)[C@@H](F)[C@H]3C3CC3)nccc2cc1C(N)=O [Example 368]: Satisfied

q: // inclusive: pIC50 at least 8? input: COc1cc2c(OC[C@H]3NC(=O)[C@H](F)[C@H]3CF)nccc2cc1C(N)=O [Example 375]
a: Satisfied

q: Record: COc1cc2c(OC[C@H]3NC(=O)[C@H](OC)[C@H]3C)nccc2cc1C(N)=O [Example 350]
a: Not satisfied

q: Record: COc1cc2c(OC[C@H]3NC(=O)[C@@H](F)[C@H]3CCF)nccc2cc1C(N)=O [Example 370]
a: Satisfied

* * *

- study system: human IRAK4 kinase domain (aa 154-460) (Homo sapiens (Human))
- Sequence (Q9NWZ3 154-460): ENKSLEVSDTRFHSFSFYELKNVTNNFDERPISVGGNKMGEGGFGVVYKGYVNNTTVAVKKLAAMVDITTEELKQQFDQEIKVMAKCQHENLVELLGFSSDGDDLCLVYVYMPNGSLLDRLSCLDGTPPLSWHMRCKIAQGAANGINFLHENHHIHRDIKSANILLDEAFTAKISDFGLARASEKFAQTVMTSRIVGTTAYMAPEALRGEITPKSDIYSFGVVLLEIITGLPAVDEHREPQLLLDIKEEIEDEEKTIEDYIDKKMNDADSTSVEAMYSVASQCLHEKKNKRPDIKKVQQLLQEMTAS
- test details: IRAK4 Enzymatic DELFIA Assay, Protocol B
- Format: biochemical
- test parameters: human IRAK4 kinase domain (aa 154-460), 0.6 mM ATP (KM); read-out: IRAK4 DELFIA Protocol B IC50
observation type: pIC50
Note: pIC50 values are expressed as the negative base-10 logarithm of concentration in M.

Reference set, count: 4
CC(C)Oc1cc2c(OC[C@@H]3CN(C(=O)CC#N)CCO3)nccc2cc1C(N)=O [Example 75]: 5.39
CC(C)Oc1cc2c(OC[C@]34CNC[C@H]3C4)nccc2cc1C(N)=O [Example 139]: 6.59
CC(C)Oc1cc2c(OC[C@H]3CN(C(=O)CC#N)C[C@@H]3C)ccnc2cc1C(N)=O [Example 88]: 6.53
CC(C)Oc1cc2c(OC[C@@]3(C)CNC[C@@H]3C)ccnc2cc1C(N)=O [Example 55]: 6.58

q: pIC50 for CC(C)Oc1cc2c(OC[C@@H]3CCCN3C(=O)CC#N)nccc2cc1C(N)=O [Example 63] ?
a: 6.60

q: Record: CC(C)Oc1cc2c(OC[C@@H]3CCNC3)cccc2cc1C(N)=O [Example 115]
a: 7.21

q: Record: CC[C@H]1CN(C(=O)CC#N)C[C@@H]1COc1nccc2cc(C(N)=O)c(OC(C)C)cc12 [Example 80]
a: 6.48

q: Record: CC(C)Oc1cc2c(OCC3CCN(C(=O)CC#N)CC3)ccnc2cc1C(N)=O [Example 100]
a: 6.32

q: Record: CC(C)Oc1cc2c(OCC3CCOCC3)nccc2cc1C(N)=O [Example 36]
a: 6.13

q: Record: CC(C)Oc1cc2c(OC[C@@H]3CCCNC3)nccc2cc1C(N)=O [Example 48]
a: 6.44

q: Record: CO[C@H]1CNC[C@@H]1COc1nccc2cc(C(N)=O)c(OC(C)C)cc12 [Example 34]
a: 6.32

q: Record: CC(C)Oc1cc2c(OCC3CCCC3)ccnc2cc1C(N)=O [Example 7]
a: 6.77

q: Record: CC(C)Oc1cc2c(OCC3CCOC3)nccc2cc1C(N)=O (stereo not drawn) [Example 24]
a: 6.31

q: Record: CC(C)Oc1cc2c(OC[C@]34CNCC[C@H]3C4)nccc2cc1C(N)=O [Example 162]
a: 7.46

q: Record: CC(C)Oc1cc2c(OCC3(F)CCNCC3)ccnc2cc1C(N)=O [Example 54]
a: 5.61

* * *

- study system: human IRAK4 FL (Full Length) (Homo sapiens (Human))
- test details: IRAK4 Enzymatic DELFIA Assay, Protocol A
- Format: biochemical
- test parameters: human IRAK4 FL, 0.6 mM ATP (KM); read-out: IRAK4 DELFIA Protocol A IC50
Hi! Could you tag entries with IC50 below 100 nM as Y, and those at or above as N? Much appreciated.

q: Lab note: IC50 threshold 100 nM. Does this compound come in strictly under it? `CC(C)Oc1cc2c(OC[C@H]3NC(=O)[C@@H]4CN(C)C[C@H]34)nccc2cc1C(N)=O`
a: N

q: Record: `CC(C)Oc1cc2c(OC[C@H]3NC(=O)[C@@H](F)[C@H]3C)nccc2cc1C(N)=O`
a: Y

q: Record: `NC(=O)c1cc2ccnc(OC[C@@H]3CCC(=O)N3)c2cc1OCC1CC1`
a: N

q: Record: `COc1cc2c(OC[C@@H]3C[C@@H](CC#N)C(=O)N3)nccc2cc1C(N)=O`
a: Y

q: Record: `CC(C)Oc1cc2c(O[C@H](C)[C@@H]3CCC(=O)N3)nccc2cc1C(N)=O`
a: N

q: Record: `CC(C)Oc1cc2c(OC[C@@H]3C[C@@H](O)C(=O)N3)nccc2cc1C(N)=O`
a: Y

q: Record: `CC(C)Oc1cc2c(OC[C@H]3NC(=O)C(F)(F)[C@H]3C)nccc2cc1C(N)=O`
a: Y

* * *

- study system: UniProt:Q9NWZ3
- test details: IRAK4 Enzymatic DELFIA Assay, Protocol A
- Format: biochemical
- test parameters: human IRAK4 FL, 0.6 mM ATP (KM); read-out: IRAK4 DELFIA Protocol A IC50
observation type: pIC50
Note: pIC50 values are expressed as the negative base-10 logarithm of concentration in M.

CC[C@]1(F)C[C@@H](COc2nccc3cc(C(N)=O)c(OC)cc23)NC1=O: 8.17
CC(C)Oc1cc2c(OC[C@@H]3CCN3C(=O)CC#N)nccc2cc1C(N)=O: 5.36
COc1cc2c(OC[C@@H]3C[C@](C)(F)C(=O)N3)nccc2cc1C(N)=O: 8.42

Turning now to a further compound:
q: pIC50 for `CC(C)Oc1cc2c(OC[C@H]3NC(=O)[C@@H]4CNC[C@H]34)nccc2cc1C(N)=O` ?
a: 6.65

* * *

- study system: human IRAK4 kinase domain (aa 154-460) (Homo sapiens (Human))
- test details: IRAK4 Enzymatic DELFIA Assay, Protocol B
- Type: biochemical
- test parameters: human IRAK4 kinase domain (aa 154-460), 0.6 mM ATP (KM); read-out: IRAK4 DELFIA Protocol B IC50
Dear colleague, classification is by IC50, with ranges listed here: class 0 = under 0.5 µM, class 1 = from 0.5 µM up to 2 µM, class 2 = 2 µM and over

Check out these entries, answers already filled in.
CC(=O)N1CCC(COc2nccc3cc(C(N)=O)c(OC(C)C)cc23)CC1: class 2
CC(C)Oc1cc2c(OC[C@H]3CCCNC3)nccc2cc1C(N)=O: class 1
CC(C)Oc1cc2c(OC[C@@H]3CNCCO3)ccnc2cc1C(N)=O: class 2
CC(C)Oc1cc2c(OCC3COC(=O)N3C)nccc2cc1C(N)=O (stereo not drawn): class 0
CC(C)Oc1cc2c(OCC3CCNC3)nccc2cc1C(N)=O (stereo not drawn): class 0
CC(C)Oc1cc2c(OC[C@H]3COCCN3)nccc2cc1C(N)=O: class 1
CC(C)Oc1cc2c(OCC3CCCCN3)nccc2cc1C(N)=O (stereo not drawn): class 2
COc1cc2c(OC[C@@H]3NC(=O)CC3(C)C)nccc2cc1C(N)=O: class 1
CC(C)Oc1cc2c(OC[C@H]3CCCNC3)ccnc2cc1C(N)=O: class 2
CC(C)Oc1cc2c(OC[C@H]3CCCN3C(=O)CC#N)nccc2cc1C(N)=O: class 0

q: Please indicate the class for `CC(C)Oc1cc2c(OCC3(C)CCNCC3)ccnc2cc1C(N)=O` based on its IC50.
a: class 1

q: Record: `CC(C)Oc1cc2c(OC[C@H]3CN(C(=O)CC#N)C[C@@H]3C)nccc2cc1C(N)=O`
a: class 1

q: Record: CC(C)Oc1cc2c(OC3CCC34CCNCC4)ccnc2cc1C(N)=O (stereo not drawn)
a: class 2

q: Record: CC(C)Oc1cc2c(OCC3CCCO3)ccnc2cc1C(N)=O (stereo not drawn)
a: class 2

q: Record: `CO[C@H]1CN(C(=O)CC#N)C[C@@H]1COc1nccc2cc(C(N)=O)c(OC(C)C)cc12`
a: class 1

q: Record: CC(C)Oc1cc2c(OCC3CNC(=O)O3)nccc2cc1C(N)=O (stereo not drawn)
a: class 0

q: Record: `CC(C)Oc1cc2c(OC[C@@H]3CCN3C(=O)CC#N)nccc2cc1C(N)=O`
a: class 1

q: Record: `CC(C)Oc1cc2c(OC[C@H]3CN(C(=O)CC#N)CCO3)nccc2cc1C(N)=O`
a: class 2

q: Record: `CC(C)Oc1cc2c(OCC3(C)CCC3)ccnc2cc1C(N)=O`
a: class 0

q: Record: `CC(C)Oc1cc2c(O[C@H]3C[C@@H]4CN[C@H]3C4)nccc2cc1C(N)=O`
a: class 1

q: Record: `CC(C)Oc1cc2c(OCC3(F)CCNCC3)nccc2cc1C(N)=O`
a: class 2

q: Record: `CC(C)Oc1cc2c(O[C@@H]3C[C@H]4C[C@@H]3CN4)nccc2cc1C(N)=O`
a: class 0

q: Record: `CC(C)Oc1cc2c(OC[C@@H]3CCCNC3)ccnc2cc1C(N)=O`
a: class 2

q: Record: `CC(C)Oc1cc2c(OC[C@H]3CCCO3)nccc2cc1C(N)=O`
a: class 2

q: Record: `CC(C)Oc1cc2c(OCC3CCNCC3)ccnc2cc1C(N)=O`
a: class 1

q: Record: `CC(C)Oc1cc2c(OC[C@H]3COCCN3C(=O)CC#N)nccc2cc1C(N)=O`
a: class 1

q: Record: `CC(C)Oc1cc2c(OC[C@H]3NC(=O)[C@@H]4OC(C)(C)O[C@H]34)nccc2cc1C(N)=O`
a: class 0

q: Record: `CC(C)Oc1cc2c(OCC3(C)COC3)ccnc2cc1C(N)=O`
a: class 1

q: Record: `CC(C)Oc1cc2c(OC[C@@H]3CCCN(C(=O)CC#N)C3)nccc2cc1C(N)=O`
a: class 1

q: Record: CC(C)Oc1cc2c(OC[C@]34CNC[C@H]3C4)nccc2cc1C(N)=O [Example 40]
a: class 0

q: Record: `CC(C)Oc1cc2c(O[C@H]3C[C@@H]4C[C@H]3CN4)nccc2cc1C(N)=O`
a: class 1

q: Record: `CC(C)Oc1cc2c(O[C@@H]3CC4CC[C@H]3C4)ccnc2cc1C(N)=O`
a: class 0
